Value source: PubChem BioAssay AID2012

Documented inhibition across a set of molecules
target_system: Eukaryotic translation initiation factor 4H (Homo sapiens) (UniProt Q15056)
test_protocol: human eIF4H binding inhibitors, primary screen, translation initiation inhibitor project, biochemical, uHTS, fluorescence polarization (AID 2012);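 note: calls also rest on retests at 20 µM and on dose response follow-up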
assay_setup: eIF4H fluorescence polarization binding assay; at 35 µM; active compounds read high
Out of some 290,000 compounds screened, about 2,700 (0.93%) were called active. Many of the other results were omitted from the sample, so actives are more common in it than they were.
Report only the number, with the unit % understood.

Worked cases, answers included:
1. O=c1[nH]c(/C=C\c2cccc(C(F)(F)F)c2)nc(O)c1[N+](=O)[O-]
3.5
2. CC(=O)NC(Cc1ccc(F)c(F)c1)C(=O)NC1CCN(C(=O)c2ccc(C)cc2)CC1 (stereo unspecified)
-14.2
3. O=C(NCc1ccccn1)c1cc(-c2ccccc2Cl)on1
-3.2
4. Cc1ccc(C)c(C(C)NC(=O)C2CCCO2)c1 (stereo unspecified)
92.8

Specify reported inhibition for the molecule shown: CSCCC(NS(=O)(=O)c1ccccc1F)C(=O)N1CC=C(c2ccccc2)CC1 (stereo unspecified)
0

Specify reported inhibition for the molecule shown: Cc1cccnc1CC(C)NC(=O)c1cc(COc2cncc(Cl)c2)on1 (stereo unspecified)
-1

Specify reported inhibition for the molecule shown: COc1ccc(C(=O)C2CCCN(C(=O)c3ccc(OC)o3)C2)c(C)c1 (stereo unspecified)
-2.6

Specify reported inhibition for the molecule shown: CC(=O)c1ccc(NC(=O)CCc2nnc3ccc(NCc4ccco4)nn23)cc1
38.5

Specify reported inhibition for the molecule shown: CC1CN(C(=S)Nc2ccc(S(N)(=O)=O)cc2)CC(C)O1 (stereo unspecified)
4.3

Specify reported inhibition for the molecule shown: Cc1cc(C)cc(NC(=O)CCN2C(=O)c3ccccc3C2=O)c1
-1.3

Specify reported inhibition for the molecule shown: O=C(CNC(=O)C1COc2ccccc2O1)N/N=C/c1cc(Br)c(O)c(Br)c1 (stereo unspecified)
7.4

====

Documented inhibition across a set of compounds
target_system: Eukaryotic translation initiation factor 4H (Homo sapiens)
test_protocol: human eIF4H binding inhibitors, primary screen, translation initiation inhibitor project, biochemical, uHTS, fluorescence polarization (AID 2012);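 note: calls also rest on retests at 20 µM and on dose response follow-up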
assay_setup: eIF4H fluorescence polarization binding assay; at 35 µM; active compounds read high
In all, about 290,000 compounds went through this assay and about 2,700 (0.93%) were called active. The sample as a whole holds a higher share of actives than the screen did.
Report only the number, with the unit % understood.

Worked cases, answers included:
1. CCOc1ccc(C(=O)Nc2c3c(nn2-c2ccccc2)CS(=O)(=O)C3)cc1
-1.2
2. COc1ccccc1NC(=S)N1CCN(c2ccc(F)cc2)CC1
-0.9
3. CCCCc1nc2cc(C(=O)N3CCCCC3CCO)ccc2o1 (centres undefined)
-1.1
4. CCCCSCCCNC(=O)C1CCC(CNS(=O)(=O)c2ccc(NC(C)=O)cc2)CC1 (centres undefined)
2.4
5. O=C(NCC(=O)N1CCN(c2ccccc2O)CC1)c1ccc2ccccc2c1
6
6. Cc1cccn2c(=O)c(C=O)c(Nc3ccc(S(N)(=O)=O)cc3)nc12
-1.8
7. O=C(O)CCn1c(Cc2ccccc2)nc2ccccc21
0.7
8. Cc1ccsc1-c1cc(C(=O)O)c2c(ccc3ccccc32)n1
30.1
9. Cc1cc2ccccc2n1CCNC(=O)COc1ccc2ccccc2c1
21
10. Cc1ccc(Nc2nc(C)cc(C)c2C(N)=O)cc1
5.6

Specify reported inhibition for the compound shown: COc1cccc(NC(=O)c2ccccc2N(Cc2ccccc2)S(C)(=O)=O)c1
-8.4

Specify reported inhibition for the compound shown: Oc1ccc(-c2cccc(-c3ccc(O)cc3)c2)cc1
2

Specify reported inhibition for the compound shown: Cc1cc(=O)n2[nH]c(-c3sccc3-n3c(C)ccc3C)cc2n1
93.9
